System: mouse p16Ink4a+/- lung fibroblasts (INKBRITE, bleomycin-injured)
Assay: GFP- (p16Ink4a-) cell count relative to negative-control wells (fold of vehicle); higher = more p16Ink4a- cells surviving
Conditions: 1 µM; 3 days
Over roughly 1,800 compounds, “GFP- (p16Ink4a-) cell count relative to negative-control wells” has its median near 0.99; the lowest 2% begin near 0.5. The entries come from a sample that favours the lowest values as a whole.
QUANTITY_MEASURED: GFP-
Answer field: number only, no words.

Known results for molecules:
MOLECULE	GFP-
CN1CC[C@H](c2c(O)cc(O)c3c(=O)cc(-c4ccccc4Cl)oc23)[C@H](O)C1	0.326
C[C@@]1(C(=O)Nc2ccc(F)nc2)CCCN1c1nc(Nc2cc(C3CC3)[nH]n2)c2cccn2n1	0.776
Cc1ccnc2c1NC(=O)c1cccnc1N2C1CC1	1.06
Nc1ccc(S(=O)(=O)Nc2ccccn2)cc1	0.965
Nc1cc(C(F)(F)F)c(-c2cc(N3CCOCC3)nc(N3CCOCC3)n2)cn1	0.719

Please examine the following record next.
Case Cc1onc(-c2c(Cl)cccc2Cl)c1C(=O)N[C@@H]1C(=O)N2[C@@H]1SC(C)(C)[C@@H]2C(=O)O , mouse p16Ink4a+/- lung fibroblasts (INKBRITE, bleomycin-injured), GFP- recorded as 0.966

* * *

Tested on: mouse p16Ink4a+/- lung fibroblasts (INKBRITE, bleomycin-injured)
Test: GFP- (p16Ink4a-) cell count relative to negative-control wells (fold of vehicle); higher = more p16Ink4a- cells surviving
Settings: 1 µM; 3 days
Where a name gives a salt, the structure may show the parent alone. Over roughly 1,800 compounds, “GFP- (p16Ink4a-) cell count relative to negative-control wells” has its median near 0.99; the lowest 2% begin near 0.5. Shown is part of a subset that was picked to be rich in the lowest values.
This section presents molecules with their documented GFP- values.
Answer field: number only, no words.

MOLECULE	GFP-
Cc1cccc(C)c1OCC(=O)N[C@@H](Cc1ccccc1)[C@@H](O)C[C@H](Cc1ccccc1)NC(=O)[C@H](C(C)C)N1CCCNC1=O	0.947
c1cnc2cc3c(cc2n1)C1CNCC3C1 [Varenicline Tartrate]	0.907
O=c1cc(N2CCOCC2)oc2c1ccc1ccccc12	1.03
CC1(C)Cc2c(-c3ccccc3)c(-c3ccc(Cl)cc3)c(CC(=O)O)n2C1	0.892
CCOC(=O)c1ccc(C#Cc2ccc3c(c2)C(C)(C)CCS3)nc1	1.05
C[C@H](NCc1ccc(OCc2cccc(F)c2)cc1)C(N)=O [Safinamide]	1.06

For record Cc1c[nH]c(-c2cnc(NCCNc3ccc(C#N)cn3)nc2-c2ccc(Cl)cc2Cl)n1 the listed GFP- is 1.14

For record CCOC(=O)[C@H](CCc1ccccc1)N[C@H]1CCc2ccccc2N(CC(=O)O)C1=O the listed GFP- is 1.01

For record O=c1cc(-c2ccccc2)oc2cc(O)cc(O)c12 the listed GFP- is 0.996

* * *

System: mouse p16Ink4a+/- lung fibroblasts (INKBRITE, bleomycin-injured)
Test: GFP- (p16Ink4a-) cell count relative to negative-control wells (fold of vehicle); higher = more p16Ink4a- cells surviving
Conditions: 1 µM; 3 days
Counter-ions that a name gives are not always drawn. Over roughly 1,800 compounds, “GFP- (p16Ink4a-) cell count relative to negative-control wells” has its median near 0.99; the lowest 2% begin near 0.5. This is one part of a sample in which the lowest values are shown more often than they occur.
This section presents compounds with their documented GFP- values.
Answer field: number only, no words.

Known results for compounds:
COMPOUND	EXPERIMENTAL_TARGET	QUANTITY_MEASURED	OBS_VALUE
Nc1nc(N)c(N=O)c(OCC2CCCCC2)n1	mouse p16Ink4a+/- lung fibroblasts (INKBRITE, bleomycin-injured)	GFP-	1.07
C[C@]12C=CC(=O)C=C1CC[C@H]1[C@@H]3C[C@@H](O)[C@](O)(C(=O)CO)[C@@]3(C)C[C@H](O)[C@@]12F [Triamcinolone]	mouse p16Ink4a+/- lung fibroblasts (INKBRITE, bleomycin-injured)	GFP-	0.986
O=C(NOCC(O)CO)c1cc(Br)c(F)c(F)c1Nc1ccc(I)cc1F (configuration not stated)	mouse p16Ink4a+/- lung fibroblasts (INKBRITE, bleomycin-injured)	GFP-	0.818
CC(C)C[C@H](NC(=O)CNC(=O)c1cc(Cl)ccc1Cl)B(O)O [Ixazomib]	mouse p16Ink4a+/- lung fibroblasts (INKBRITE, bleomycin-injured)	GFP-	0.394
CNCc1ccc(-c2[nH]c3cc(F)cc4c3c2CCNC4=O)cc1 [Rucaparib]	mouse p16Ink4a+/- lung fibroblasts (INKBRITE, bleomycin-injured)	GFP-	0.817
FC(F)c1nc2ccccc2n1-c1nc(N2CCOCC2)nc(N2CCOCC2)n1	mouse p16Ink4a+/- lung fibroblasts (INKBRITE, bleomycin-injured)	GFP-	0.711

Case C[N+](C)(C)CC(O)CC(=O)O (stereo not drawn) [Carnitine Hydrochloride, Carnitine (dl) Hydrochloride] , mouse p16Ink4a+/- lung fibroblasts (INKBRITE, bleomycin-injured), GFP- recorded as 1.1
